src = paper PMC5540273

Tested on: PRKG1;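 note: KINOMEscan kinase panel screen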
runParameters: concentration: 1 μM, replicates: in singlicate; n = 1
Entries whose %Inh is below 10% take 1; entries at or above 10% take 0.

I'd appreciate it if you could check whether c1ccc(-c2cnc3nccnn23)cc1 has %Inh smaller than 10%.
0

Given the entry Cn1cc(-c2ccc3c(c2)CCN3C(=O)Cc2cccc(Cl)c2)c2c(N)ncnc21 , would its reported %Inh be below 10%?
0

Problem: For the compound COC(=O)Nc1nc2ccc(Oc3ccc(NC(=O)Nc4cc(C(F)(F)F)ccc4F)cc3)cc2n1C.Cl , is %Inh under 10%?
0

Item Cc1cccc(NC(=O)Nc2ccc(Oc3ncnc4ccn(C)c34)cc2)c1 : %Inh beneath 10%, strictly?
0

API: query returns whether the compound falls strictly under 10% in %Inh. Query: CN(c1ccc(NC(=O)Nc2cc(C(F)(F)F)ccc2F)cc1)c1ccnc(Nc2ccc(S(N)(=O)=O)cc2)n1
0

Below 10% on %Inh? Entry c1ccc(-c2n[nH]cc2Nc2ccnc3ccccc23)nc1
1

Lab log: compare recorded %Inh with 10%; is it strictly lower for Cl.Cl.NCC(NC(=O)c1cc(-c2ccccc2)c(-c2ccnc3[nH]ccc23)s1)c1ccccc1 (centres unmarked) ?
0

Identify whether the compound Cc1ccc(C(=O)N2CC[C@@H](O)C2)cc1-n1c(C)cc(OCc2ccc(F)cc2F)c(Br)c1=O records %Inh below 10%.
1

For this compound, is %Inh lower than 10%? COc1cc2c(cc1OCCN1CCNCC1)ncc1c3ccc(C#N)cc3[nH]c21
1

Confirm or reject: %Inh of Cc1cccc(Nc2nc(N[C@H]3CCNC3)ncc2C(N)=O)c1.Cl lies strictly below 10%
1

Find out if reported %Inh for Cn1cc(-c2ccc3c(c2)CCN3C(=O)Cc2cccc(F)c2)c2c(N)ncnc21 is less than 10%
1

%Inh under 10%? Item: Nc1ncnc2c1nc(-c1ccccc1)n2-c1ccccc1
1

Is it true that %Inh reported for COCCOCCOc1cc2ncc3c4ccc(C#N)cc4[nH]c3c2cc1OC is less than 10%?
1

Take the compound Cc1occc1-c1ncc(OC[C@@H](N)Cc2c[nH]c3ccccc23)cc1-c1ccc2[nH]nc(C)c2c1.O=C(O)C(F)(F)F and say whether its %Inh is less than 10%.
0

%Inh strictly < 10% for this compound? Cc1ccc(C(=O)Nc2ccc(Nc3ccnc4cc(-c5nccs5)ccc34)cc2O)cc1.Cl
1

Problem: For the compound O=C(Nc1cccc(-c2nn3ccccc3c2-c2ccnc(Nc3cccc(F)c3)n2)c1)c1c(F)ccc(F)c1Cl , is %Inh under 10%?
1

Lab note: %Inh threshold 10%. Does this compound come in strictly under it? O=C(Nc1cccc(-c2nn3ccccc3c2-c2ccnc(Nc3cccc(C(F)(F)F)c3)n2)c1)c1c(F)cccc1F
1
